# Test system: Bacillus anthracis
# measurement-protocol: microbe, parasite or virus in culture
# Format: functional
observation-type: MIC (µg/mL)

Cc1oc(=O)oc1COC(=O)C1=C([C@H]2CCCO2)S[C@@H]2[C@@H]([C@@H](C)O)C(=O)N12 0.25
O=C(O)c1cn(C2CC2)c2cc(N3CCNCC3)c(F)cc2c1=O 0.12
CC1(C)S[C@@H]2[C@H](NC(=O)Cc3ccccc3)C(=O)N2[C@H]1C(=O)O 2
CC[C@H]1OC(=O)[C@H](C)[C@@H](O[C@H]2C[C@@](C)(OC)[C@@H](O)[C@H](C)O2)[C@H](C)[C@@H](O[C@@H]2O[C@H](C)C[C@H](N(C)C)[C@H]2O)[C@](C)(O)C[C@@H](C)CN(C)[C@H](C)[C@@H](O)[C@]1(C)O 4
C[C@@H](O)[C@H]1C(=O)N2C(C(=O)O)=C(S[C@@H]3CN[C@H](C(=O)N(C)C)C3)[C@H](C)[C@H]12 0.25

====

# MIC per record follows
# Tested on: Bacillus anthracis
# measurement-protocol: microbe, parasite or virus in culture
# Format: functional

compound	MIC / µg/mL
CC[C@H]1OC(=O)[C@H](C)[C@@H](O[C@H]2C[C@@](C)(OC)[C@@H](O)[C@H](C)O2)[C@H](C)[C@@H](O[C@@H]2O[C@H](C)C[C@H](N(C)C)[C@H]2O)[C@](C)(O)C[C@@H](C)CN(C)[C@H](C)[C@@H](O)[C@]1(C)O [AZITHROMYCIN]	4
CC1(C)S[C@@H]2[C@H](NC(=O)Cc3ccccc3)C(=O)N2[C@H]1C(=O)O [PENICILLIN G]	4

====

# Tested on: Bacillus anthracis
# measurement-protocol: microbe, parasite or virus in culture
# Assay type: functional
observation-type: MIC (µg/mL)

Cc1oc(=O)oc1COC(=O)C1=C([C@H]2CCCO2)S[C@@H]2[C@@H]([C@@H](C)O)C(=O)N12 0.5
C[C@@H](O)[C@H]1C(=O)N2C(C(=O)O)=C(S[C@@H]3CN[C@H](C(=O)N(C)C)C3)[C@H](C)[C@H]12 0.25
O=C(O)c1cn(C2CC2)c2cc(N3CCNCC3)c(F)cc2c1=O 0.25

====

# Test system: Bacillus anthracis
# measurement-protocol: microbe, parasite or virus in culture
# Format: functional
observation-type: MIC

CC1(C)S[C@@H]2[C@H](NC(=O)Cc3ccccc3)C(=O)N2[C@H]1C(=O)O 2 µg/mL
Cc1oc(=O)oc1COC(=O)C1=C([C@H]2CCCO2)S[C@@H]2[C@@H]([C@@H](C)O)C(=O)N12 0.12 µg/mL
CC[C@H]1OC(=O)[C@H](C)[C@@H](O[C@H]2C[C@@](C)(OC)[C@@H](O)[C@H](C)O2)[C@H](C)[C@@H](O[C@@H]2O[C@H](C)C[C@H](N(C)C)[C@H]2O)[C@](C)(O)C[C@@H](C)CN(C)[C@H](C)[C@@H](O)[C@]1(C)O 4 µg/mL
CN(C)[C@@H]1C(O)=C(C(N)=O)C(=O)[C@@]2(O)C(O)=C3C(=O)c4c(O)cccc4[C@@](C)(O)[C@H]3C[C@@H]12 ≤ 0.06 µg/mL
O=C(O)c1cn(C2CC2)c2cc(N3CCNCC3)c(F)cc2c1=O ≤ 0.06 µg/mL
C[C@@H](O)[C@H]1C(=O)N2C(C(=O)O)=C(S[C@@H]3CN[C@H](C(=O)N(C)C)C3)[C@H](C)[C@H]12 0.12 µg/mL
C[C@H]1c2cccc(O)c2C(=O)C2=C(O)[C@]3(O)C(=O)C(C(N)=O)=C(O)[C@@H](N(C)C)[C@@H]3[C@@H](O)[C@@H]21.O ≤ 0.06 µg/mL

====

# Tested on: Bacillus anthracis
# measurement-protocol: microbe, parasite or virus in culture
# Type: functional
observation-type: MIC

CC1(C)S[C@@H]2[C@H](NC(=O)Cc3ccccc3)C(=O)N2[C@H]1C(=O)O 4 µg/mL
O=C(O)c1cn(C2CC2)c2cc(N3CCNCC3)c(F)cc2c1=O 0.12 µg/mL
CC[C@H]1OC(=O)[C@H](C)[C@@H](O[C@H]2C[C@@](C)(OC)[C@@H](O)[C@H](C)O2)[C@H](C)[C@@H](O[C@@H]2O[C@H](C)C[C@H](N(C)C)[C@H]2O)[C@](C)(O)C[C@@H](C)CN(C)[C@H](C)[C@@H](O)[C@]1(C)O 2 µg/mL
C[C@@H](O)[C@H]1C(=O)N2C(C(=O)O)=C(S[C@@H]3CN[C@H](C(=O)N(C)C)C3)[C@H](C)[C@H]12 0.25 µg/mL
C[C@H]1c2cccc(O)c2C(=O)C2=C(O)[C@]3(O)C(=O)C(C(N)=O)=C(O)[C@@H](N(C)C)[C@@H]3[C@@H](O)[C@@H]21.O ≤ 0.06 µg/mL
CN(C)[C@@H]1C(O)=C(C(N)=O)C(=O)[C@@]2(O)C(O)=C3C(=O)c4c(O)cccc4[C@@](C)(O)[C@H]3C[C@@H]12 ≤ 0.06 µg/mL
Cc1oc(=O)oc1COC(=O)C1=C([C@H]2CCCO2)S[C@@H]2[C@@H]([C@@H](C)O)C(=O)N12 0.12 µg/mL

====

# Species on record: Homo sapiens
# measurement-protocol: Plasma protein binding in human at 1000 ug/ml by ultrafiltration technique
# assay-setup: read-out: PPB (converted)
observation-type: fraction unbound at 1000 ug/ml

Cc1oc(=O)oc1COC(=O)C1=C([C@H]2CCCO2)S[C@@H]2[C@@H]([C@@H](C)O)C(=O)N12 0.787

====

# MIC per record follows
# Test system: Bacillus anthracis
# measurement-protocol: microbe, parasite or virus in culture
# Assay type: functional
observation-type: MIC (µg/mL)

CC[C@H]1OC(=O)[C@H](C)[C@@H](O[C@H]2C[C@@](C)(OC)[C@@H](O)[C@H](C)O2)[C@H](C)[C@@H](O[C@@H]2O[C@H](C)C[C@H](N(C)C)[C@H]2O)[C@](C)(O)C[C@@H](C)CN(C)[C@H](C)[C@@H](O)[C@]1(C)O 4
CC1(C)S[C@@H]2[C@H](NC(=O)Cc3ccccc3)C(=O)N2[C@H]1C(=O)O 4
C[C@@H](O)[C@H]1C(=O)N2C(C(=O)O)=C(S[C@@H]3CN[C@H](C(=O)N(C)C)C3)[C@H](C)[C@H]12 0.12

====

# Species on record: Homo sapiens
# measurement-protocol: Plasma protein binding in human at 5 ug/ml by ultrafiltration technique
# assay-setup: read-out: PPB (converted)

compound	fraction unbound at 5 ug/ml
Cc1oc(=O)oc1COC(=O)C1=C([C@H]2CCCO2)S[C@@H]2[C@@H]([C@@H](C)O)C(=O)N12 [FAROPENEM MEDOXOMIL]	0.1

====

# measurement-protocol: Plasma protein binding in CD1 mouse at 5 ug/ml by ultrafiltration technique
# Format: ADME, cell-free
# assay-setup: read-out: PPB (converted)

compound	fraction unbound at 5 ug/ml
Cc1oc(=O)oc1COC(=O)C1=C([C@H]2CCCO2)S[C@@H]2[C@@H]([C@@H](C)O)C(=O)N12 [FAROPENEM MEDOXOMIL]	0.15

====

# MIC per record follows
# Tested on: Bacillus anthracis
# measurement-protocol: microbe, parasite or virus in culture
# Type: functional
observation-type: MIC (µg/mL)

CC[C@H]1OC(=O)[C@H](C)[C@@H](O[C@H]2C[C@@](C)(OC)[C@@H](O)[C@H](C)O2)[C@H](C)[C@@H](O[C@@H]2O[C@H](C)C[C@H](N(C)C)[C@H]2O)[C@](C)(O)C[C@@H](C)CN(C)[C@H](C)[C@@H](O)[C@]1(C)O 4
CC1(C)S[C@@H]2[C@H](NC(=O)Cc3ccccc3)C(=O)N2[C@H]1C(=O)O 2
C[C@@H](O)[C@H]1C(=O)N2C(C(=O)O)=C(S[C@@H]3CN[C@H](C(=O)N(C)C)C3)[C@H](C)[C@H]12 0.12
Cc1oc(=O)oc1COC(=O)C1=C([C@H]2CCCO2)S[C@@H]2[C@@H]([C@@H](C)O)C(=O)N12 0.12

====

# System: Bacillus anthracis
# measurement-protocol: microbe, parasite or virus in culture
# Assay type: functional
# MIC per record follows
observation-type: MIC (µg/mL)

O=C(O)c1cn(C2CC2)c2cc(N3CCNCC3)c(F)cc2c1=O 0.12
C[C@@H](O)[C@H]1C(=O)N2C(C(=O)O)=C(S[C@@H]3CN[C@H](C(=O)N(C)C)C3)[C@H](C)[C@H]12 0.12
CC1(C)S[C@@H]2[C@H](NC(=O)Cc3ccccc3)C(=O)N2[C@H]1C(=O)O 1
CC[C@H]1OC(=O)[C@H](C)[C@@H](O[C@H]2C[C@@](C)(OC)[C@@H](O)[C@H](C)O2)[C@H](C)[C@@H](O[C@@H]2O[C@H](C)C[C@H](N(C)C)[C@H]2O)[C@](C)(O)C[C@@H](C)CN(C)[C@H](C)[C@@H](O)[C@]1(C)O 4
